The reported measurements were obtained from the supplement of paper PMC9233669.

Quick reference: self-aminoacylation of the listed items.
- Test system: biotinyl-Leu-oxazolone
- test: self-aminoacylation, catalytic enhancement (BLO) (fold over background); higher = more active; k-Seq, kA / k0A0; sequences stand for … in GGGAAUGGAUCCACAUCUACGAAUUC…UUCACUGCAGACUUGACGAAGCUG
Fewer inactive variants are shown than the library holds.
// response body must contain only the number

>>> number("AUUCUCCUUGGUCAUCGGGUG [Fam2.2 aminoacylation ribozyme variant]")
13.8
>>> number("AUACUUCAUACAAUCGGUCUG [Fam1A.1 aminoacylation ribozyme variant]")
0.874
>>> number("AUUUACCUAGGUCAUCGUGUG [Fam2.2 aminoacylation ribozyme variant]")
1.18
>>> number("AUUACACUGGCCAUCGAGUGA [Fam2.1 aminoacylation ribozyme variant]")
6.8

Given item CUGCUUCAAGCAAUCGGUCUG [Fam1A.1 aminoacylation ribozyme variant] , the value recorded as its self-aminoacylation is 2.96

Given item AUUCGCUUAGGUCAUCGGGUG [Fam2.2 aminoacylation ribozyme variant] , the value recorded as its self-aminoacylation is 8

Given item CCACACUUCAAGUGAUCGGUC [Fam1B.1 aminoacylation ribozyme variant] , the value recorded as its self-aminoacylation is 0.951

Given item AUUCACCCAGGUCAUCGGGUC [Fam2.2 aminoacylation ribozyme variant] , the value recorded as its self-aminoacylation is 1.92

Given item AUUAGCAUGGUCAUCGAGUGA [Fam2.1 aminoacylation ribozyme variant] , the value recorded as its self-aminoacylation is 3.39

Given item AUUCACCUAGGUCAACGGGCG [Fam2.2 aminoacylation ribozyme variant] , the value recorded as its self-aminoacylation is 3.24

Given item AUUCAUCUAGGUCCUCGGGUG [Fam2.2 aminoacylation ribozyme variant] , the value recorded as its self-aminoacylation is 8.62

* * *

- Test system: biotinyl-Ile-oxazolone
- test: self-aminoacylation, catalytic enhancement (BIO) (fold over background); higher = more active; k-Seq, kA / k0A0; sequences stand for … in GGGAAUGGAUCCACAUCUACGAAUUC…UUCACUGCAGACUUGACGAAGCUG
This sample holds only a part of the variants without activity.
Quick reference: self-aminoacylation of the listed items.
// response body must contain only the number

Answered examples (3):
>>> number("UUACUUCAAACAAUCGGUAUG [Fam1A.1 aminoacylation ribozyme variant]")
1.16
>>> number("CUACUUCAAACAAUCGGUAAG [Fam1A.1 aminoacylation ribozyme variant]")
0.516
>>> number("AUUCACCUAGGUCAUAGGUUG [Fam2.2 aminoacylation ribozyme variant]")
0.63

Given item AUUCACCUACGUCAUCGUGUG [Fam2.2 aminoacylation ribozyme variant] , the value recorded as its self-aminoacylation is 0.632

* * *

- System: biotinyl-Met-oxazolone
- test: self-aminoacylation, catalytic enhancement (BMO) (fold over background); higher = more active; k-Seq, kA / k0A0; sequences stand for … in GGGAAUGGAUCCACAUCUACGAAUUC…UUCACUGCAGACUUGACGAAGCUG
Variants at the floor of the assay were thinned out.
// Condition not met strictly below 2 in self-aminoacylation; Condition met otherwise

Past entries and their recorded results:
>>> group("CUUCACCUGGGUCAUCGGGUG [Fam2.2 aminoacylation ribozyme variant]")
"Condition met"
>>> group("CCACACUUUAAGCAAUCGGUA [Fam1B.1 aminoacylation ribozyme variant]")
"Condition not met"
>>> group("CUACUUCAGACAAUCGGUCUG [Fam1A.1 aminoacylation ribozyme variant]")
"Condition not met"
>>> group("CCACACUUCAAGCCAUCGGGC [Fam1B.1 aminoacylation ribozyme variant]")
"Condition not met"
>>> group("AUUACACUGGCCAUCGAGUGA [Fam2.1 aminoacylation ribozyme variant]")
"Condition met"
>>> group("AAGCUUGCUAAGAGUCGCAAG [Fam3.1 aminoacylation ribozyme variant]")
"Condition met"
>>> group("AUUCACAUAGGUCAGCGGGUG [Fam2.2 aminoacylation ribozyme variant]")
"Condition met"

Turning to the following sequence.
Challenge: Reported self-aminoacylation at or above 2? AUUAGCCUGGUCACCGAGUGA [Fam2.1 aminoacylation ribozyme variant]
Response given: Condition met

* * *

- System: biotinyl-Val-oxazolone
- test: self-aminoacylation, catalytic enhancement (BVO) (fold over background); higher = more active; k-Seq, kA / k0A0; sequences stand for … in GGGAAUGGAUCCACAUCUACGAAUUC…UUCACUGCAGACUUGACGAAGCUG
Variants at the floor of the assay were thinned out.
Quick reference: self-aminoacylation of the listed items.
// response body must contain only the number

Form: item AUUCAACUAGGUCAACGGGUG [Fam2.2 aminoacylation ribozyme variant] ; test system biotinyl-Val-oxazolone; self-aminoacylation: 2.31

Form: item CCACAGUUCAUGCAAUCGGUC [Fam1B.1 aminoacylation ribozyme variant] ; test system biotinyl-Val-oxazolone; self-aminoacylation: 1.12

Form: item GUACUUCAAACCAUCGGUCUG [Fam1A.1 aminoacylation ribozyme variant] ; test system biotinyl-Val-oxazolone; self-aminoacylation: 1.18

Form: item AUUCACCCAUGUCAUCGGGUG [Fam2.2 aminoacylation ribozyme variant] ; test system biotinyl-Val-oxazolone; self-aminoacylation: 3.15

Form: item CCACACUUCACGCCAUCGGUC [Fam1B.1 aminoacylation ribozyme variant] ; test system biotinyl-Val-oxazolone; self-aminoacylation: 2.13

Form: item CCACACUCCAAGCAAUCGGUG [Fam1B.1 aminoacylation ribozyme variant] ; test system biotinyl-Val-oxazolone; self-aminoacylation: 4.45

* * *

- Tested on: biotinyl-Leu-oxazolone
- test: self-aminoacylation, catalytic enhancement (BLO) (fold over background); higher = more active; k-Seq, kA / k0A0; sequences stand for … in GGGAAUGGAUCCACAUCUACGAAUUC…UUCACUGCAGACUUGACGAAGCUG
This sample holds only a part of the variants without activity.
// 0.0 strictly below 2 in self-aminoacylation; 1.0 otherwise

>>> group("GUUACCCCGGUCAUCGAGUGA [Fam2.1 aminoacylation ribozyme variant]")
1.0
>>> group("AUUACCCUGGUCUUCGCGUGA [Fam2.1 aminoacylation ribozyme variant]")
1.0
>>> group("AUUACCCUGAUCAUCUAGUGA [Fam2.1 aminoacylation ribozyme variant]")
1.0

Challenge: Reported self-aminoacylation at or above 2? UAGCUUGCUAAUAGUCGCAAG [Fam3.1 aminoacylation ribozyme variant]
Response given: 0.0

Challenge: Reported self-aminoacylation at or above 2? CUUACCCUGGUCAUCGAGUUA [Fam2.1 aminoacylation ribozyme variant]
Response given: 1.0

* * *

Quick reference: self-aminoacylation of the listed items.
- Tested on: biotinyl-Trp-oxazolone
- test: self-aminoacylation, catalytic enhancement (BWO) (fold over background); higher = more active; k-Seq, kA / k0A0; sequences stand for … in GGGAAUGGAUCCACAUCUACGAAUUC…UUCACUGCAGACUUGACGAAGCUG
This sample holds only a part of the variants without activity.
// response body must contain only the number

Given item CUACUUCAAACUAUUGGUCUG [Fam1A.1 aminoacylation ribozyme variant] , the value recorded as its self-aminoacylation is 0.501

Given item AUGACCCUGGUCAUCAAGUGA [Fam2.1 aminoacylation ribozyme variant] , the value recorded as its self-aminoacylation is 2.06

Given item ACGUUUGUUAAUAGUCGCAAG [Fam3.1 aminoacylation ribozyme variant] , the value recorded as its self-aminoacylation is 1.71

* * *

- Tested on: biotinyl-Val-oxazolone
- test: self-aminoacylation, catalytic enhancement (BVO) (fold over background); higher = more active; k-Seq, kA / k0A0; sequences stand for … in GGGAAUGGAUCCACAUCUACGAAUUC…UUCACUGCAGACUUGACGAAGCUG
Variants at the floor of the assay were thinned out.
Quick reference: self-aminoacylation of the listed items.

Answered examples (2):
>>> result("AUUCACCUAGUUCACCGGGUG [Fam2.2 aminoacylation ribozyme variant]")
2.41
>>> result("CUACUGCAAACAAUCCGUCUG [Fam1A.1 aminoacylation ribozyme variant]")
0.801

Given item AUUACCCAGGUCAUCGAGUGU [Fam2.1 aminoacylation ribozyme variant] , the value recorded as its self-aminoacylation is 2.06

Given item AAGUCUGCUAAUAGUAGCAAG [Fam3.1 aminoacylation ribozyme variant] , the value recorded as its self-aminoacylation is 1.08

Given item AUUACCCUGGUAACCGAGUGA [Fam2.1 aminoacylation ribozyme variant] , the value recorded as its self-aminoacylation is 5.58

Given item AAGUUUGCUCAUUGUCGCAAG [Fam3.1 aminoacylation ribozyme variant] , the value recorded as its self-aminoacylation is 0.968

Given item CGACACUUCAAGCAAUCGGCC [Fam1B.1 aminoacylation ribozyme variant] , the value recorded as its self-aminoacylation is 3.32

Given item GUAUUUCAAACAAUCGGUCUG [Fam1A.1 aminoacylation ribozyme variant] , the value recorded as its self-aminoacylation is 1.04

Given item AUUACCCUUAUCAUCGAGUGA [Fam2.1 aminoacylation ribozyme variant] , the value recorded as its self-aminoacylation is 6.51
